Measured IC50 by item
- Assay system: Ectonucleotide pyrophosphatase/phosphodiesterase family member 1 (Mus musculus, UniProt P06802)
- Sequence (P06802 whole entry): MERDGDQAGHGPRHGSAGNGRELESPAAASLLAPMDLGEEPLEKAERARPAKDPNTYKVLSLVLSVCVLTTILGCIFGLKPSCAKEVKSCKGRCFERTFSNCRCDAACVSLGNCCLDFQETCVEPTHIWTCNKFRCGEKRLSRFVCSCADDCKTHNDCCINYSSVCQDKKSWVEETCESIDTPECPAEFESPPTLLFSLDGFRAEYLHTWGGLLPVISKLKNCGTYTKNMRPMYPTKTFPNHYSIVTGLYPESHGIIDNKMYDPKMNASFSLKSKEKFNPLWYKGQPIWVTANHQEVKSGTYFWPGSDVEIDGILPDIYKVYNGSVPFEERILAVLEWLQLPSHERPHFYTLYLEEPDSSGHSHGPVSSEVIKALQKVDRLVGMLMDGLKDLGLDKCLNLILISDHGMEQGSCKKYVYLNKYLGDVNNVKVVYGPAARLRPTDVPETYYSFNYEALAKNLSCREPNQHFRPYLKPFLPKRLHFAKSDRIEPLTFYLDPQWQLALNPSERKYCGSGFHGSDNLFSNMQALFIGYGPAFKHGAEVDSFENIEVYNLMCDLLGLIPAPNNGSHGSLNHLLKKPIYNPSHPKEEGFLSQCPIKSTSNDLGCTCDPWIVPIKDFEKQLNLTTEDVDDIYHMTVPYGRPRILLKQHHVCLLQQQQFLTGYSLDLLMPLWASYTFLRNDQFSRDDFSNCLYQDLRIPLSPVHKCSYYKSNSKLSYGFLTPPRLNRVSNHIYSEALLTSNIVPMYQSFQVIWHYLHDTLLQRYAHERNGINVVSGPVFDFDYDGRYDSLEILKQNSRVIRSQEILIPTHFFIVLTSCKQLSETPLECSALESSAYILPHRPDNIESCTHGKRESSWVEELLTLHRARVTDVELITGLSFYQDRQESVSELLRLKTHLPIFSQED
Readout label: IC50

Smiles structure | Observed result
COc1cccc2c(N3CCC(CCB(O)O)CC3)c(C#N)cnc12 | > 100 nM
COc1cc(OC)c2ncc(C#N)c(N3CCC(CCP(=O)(O)O)CC3)c2c1 | > 100 nM
COc1cccc2c(NCc3ccc(B(O)O)cc3)ncnc12 | < 50 nM
COc1cc2ncnc(NCc3ccc(CP(=O)(O)O)cc3)c2cc1OC | < 50 nM
COc1cc2ncc(C#N)c(NCc3ccc(P(=O)(O)O)cc3)c2cc1OC | < 50 nM
COc1ccc2c(N3CCC(CCP(=O)(O)O)CC3)c(C#N)cnc2c1 | < 50 nM
COc1cc2ncnc(NCc3ccc(C(=O)NO)cc3)c2cc1OC | > 100 nM
COc1ccc2c(NCc3ccc(B(O)O)cc3)ncnc2c1 | > 100 nM
COc1cc2nccc(N3CCC(CCP(=O)(O)O)CC3)c2cc1OC | > 100 nM
COc1cc2ncc(C#N)c(N3CCC(CCP(=O)(O)O)CC3)c2cc1OC | < 50 nM
COc1cccc2c(NCc3ccc(C(=O)NO)cc3)ncnc12 | > 100 nM
COc1cccc2c(NCc3ccc(P(=O)(O)O)cc3)nc(/C=C/c3cccnc3)nc12 | < 50 nM
COc1cccc2c(N3CCC(CCP(=O)(O)O)CC3)c(C#N)cnc12 | < 50 nM
COc1cc2ncnc(Nc3ccc(P(=O)(O)O)cc3)c2cc1OC | > 100 nM
COc1ccc2c(NCc3ccc(P(=O)(O)O)cc3)c(C#N)cnc2c1 | < 50 nM
COc1cc2ncc3ncn(Cc4ccc(CP(=O)(O)O)cc4)c3c2cc1OC | > 100 nM
COc1ccc2c(NCc3ccc(B(O)O)cc3)c(C#N)cnc2c1 | > 100 nM
COc1cc2ncc(Cl)c(N3CCC(CCP(=O)(O)O)CC3)c2cc1OC | > 100 nM
COc1cc2ncc(N)c(N3CCC(CCP(=O)(O)O)CC3)c2cc1OC | < 50 nM
COc1cccc2c(NCc3ccc(B(O)O)cc3)c(C#N)cnc12 | > 100 nM
COc1cccc2c(NCc3ccc(C(=O)NO)cc3)c(C#N)cnc12 | > 100 nM
COc1cc2ncc(F)c(N3CCC(CCP(=O)(O)O)CC3)c2cc1OC | > 100 nM
COc1ccc2c(NCc3ccc(C(=O)NO)cc3)c(C#N)cnc2c1 | > 100 nM
COc1cccc2c(N3CCC(CCCP(=O)(O)O)CC3)c(C#N)cnc12 | < 50 nM
COc1cccc2c(NCc3ccc(CP(=O)(O)O)cc3)c(C#N)cnc12 | < 50 nM
